The measurements presented in this section are drawn from ChEMBL document CHEMBL1201862.

# Test system: HT-29
# test.method.notes: NCI tumour cell line growth inhibition, 48 h
Where a name gives a salt, the structure may show the parent alone. Calls of active or inactive are those of the source. Rule as the data show it: active = GI50 up to about 1.1 µM and inactive = higher.
assay.metric: GI50

compound	assayed.target	GI50
CN1CCc2c1nc(-c1ccc([N+](=O)[O-])cc1)c1c2N(C)CC1	HT-29	25.5 µM (inactive)
C#CC1(O)CCC2[C@@H]3CCc4cc(Oc5nc(F)nc(-c6c7ccccc7c(SCC)n6CCC)n5)ccc4C3CC[C@@]21C (some centres not stated)	HT-29	> 100 µM (inactive)
COc1cc2oc(=O)ccc2cc1CC=C(C)C [SUBEROSIN]	HT-29	22.6 µM (inactive)
Oc1ccc(Cn2c(-c3ccc(O)cc3)nc3ccccc32)cc1	HT-29	> 100 µM (inactive)
[N-]=[N+]=Nc1ccccc1C(=O)N1C(=O)c2ccccc2C(=O)N(C(=O)c2ccccc2N=[N+]=[N-])c2ccccc21	HT-29	98.6 µM (inactive)
Cn1c2nc3ccccc3c-2cc2ccccc21 [NEOCRYPTOLEPINE HYDROCHLORIDE]	HT-29	4.69 µM (inactive)

Lab note: next compound to report on.
Which GI50 is listed for CCOc1nc(OCC)nc(-c2cccn2-c2ccccc2)n1 ?
34.6 µM (inactive)

====

# Test system: TK-10
# test.method.notes: NCI tumour cell line growth inhibition, 48 h
Active and inactive are the calls of the source. Cut-off read from the data, not from the text of the source: active = GI50 up to about 1.1 µM and inactive = higher.
assay.metric: GI50

Solved cases (2 shown):
compound	assayed.target	GI50
O=C1Nc2ccccc2/C1=N/Nc1nc(-c2ccc(Cl)c(Cl)c2)cs1	TK-10	66.2 µM (inactive)
COc1ccc(C2C(=O)C(Cl)N2Nc2nc(C)cc(O)n2)cc1OC (stereo not drawn)	TK-10	43.6 µM (inactive)

# context switch: different compound, same GI50
Provide the documented GI50 with TK-10 as the system for COC1CC(OC2C(C)OC(OC3C(C)OC(OC4C(O)CC(O[C@H]5CC[C@@]6(C)C(=CC[C@]7(O)[C@@H]6C[C@@H](OC(C)=O)[C@@]6(C)[C@]7(O)CC[C@@]6(O)C(C)=O)C5)OC4C)CC3OC)CC2OC)OC(C)C1O (stereo partly drawn)
> 12.5 µM (inactive)

====

# System: SN12C
# test.method.notes: NCI tumour cell line growth inhibition, 48 h
Calls of active or inactive are those of the source. Cut-off read from the data, not from the text of the source: active = GI50 up to about 1.1 µM and inactive = higher.
Would you mind answering with one of these outcomes? active, inactive

Example entries begin here.
molecule	assayed.target	group
CCCC(=O)OC1CC(n2cc(F)c(=O)[nH]c2=O)OC1CO (stereo not given)	SN12C	active
N#CCCN(CCC#N)c1ccc(/C=C2\N=C(c3ccccc3)N(c3ccccc3)C2=O)cc1	SN12C	inactive
CCN(CC)CCNC(=O)c1cccc2cc3ccccc3nc12	SN12C	inactive
CC12CC3CC(C)(C1)CC(N=[N+]=[N-])(C3)C2	SN12C	inactive
CCOc1nc(OCC)nc(-c2cccn2-c2ccccc2)n1	SN12C	inactive

Dear all, I need the recorded test outcome for CCOC(CN=C=S)OCC , thank you.
inactive

Please indicate how the test categorized COc1cc(S(=O)(=O)Nc2ccc(-c3csc(/N=C\c4ccccc4O)n3)cc2)ccc1Cl .
inactive

What call does the record list for O=C1C(Br)=CC2(C=C1Br)CCNC1=C2C2=NCCc3c[nH]c(c32)C1=O ?
active

So what was the verdict on C[C@@H]1S[C@H](c2ccccc2F)N2Cc3ccccc3N=C12 in this test?
inactive

// return assay outcome for CC(=O)O/N=C(Cl)/C(Cl)=N/OC(C)=O
inactive

Lab log entry: Cc1coc2c1[C@@H](O)[C@@]1(C)[C@H](CCC[C@@H]1C)C2 — outcome as called in the assay?
inactive

Fill in: this test's call for O=C1C(=Cc2cccc(Cl)c2)N=C(c2ccccc2)N1n1c(-c2ccccc2)nc2ccccc2c1=O is ___
inactive

What classification did CC1(C)/C(=N\O)C2(OS(=O)(=O)C(F)(F)F)CCC1C2 (stereo not given) end up with in this test?
inactive

I'd appreciate the recorded outcome for CC(=O)O[C@H]1C(=O)[C@@]2(C)C(C(OC(=O)c3ccccc3)[C@]3(O)CC(OC(=O)C(O)C(NC(=O)c4cccc(Cl)c4)c4ccccc4)C(C)=C1C3(C)C)[C@]1(OC(C)=O)CO[C@@H]1C[C@@H]2O (stereo not given in full) from this test.
active

Test call for this molecule, please: COC(=O)c1c2c(cc3c1CC1(Cc4ccc(C(C)=O)cc4C1)C3)CCC2 (stereo not given)
inactive
